These entries and their values trace back to the supplement of paper PMC11451515.

Here the recorded AUC of viability dose-response curve is given for each entry.
test system: NOMO1; assay: AUC of viability dose-response curve (% viability x log10 dose units); higher = less sensitive; details: RPMI 5 mM glucose + 10% FBS; 48 h
Keep the answer to the number alone.

Known AUC of viability dose-response curve results, listed for orientation:
INSERT INTO results (molecule, measured_value) VALUES
  ('COc1cccc2c1C(=O)c1c(O)c3c(c(O)c1C2=O)C[C@@](O)(C(C)=O)C[C@@H]3O[C@H]1C[C@H](N)[C@H](O)[C@H](C)O1', 262),
  ('COC1=CC=C(C=C1)C2CC(=N/N2C3=CC=C(C=C3)[S+](N)([O-])=O)\C4=CC=CC=C4 (stereo not given)', 355),
  ('O=C(CCCCCCC(=O)Nc1ccccc1)NO', 412),
  ('COC(=O)/C=C/C(=O)OC', 402),
  ('CC(=O)OC\C1=C(\[N@]2[C@@H](SC1)[C@H](N)C2=O)C(O)=O', 306);

Consider CN(C)CCCNC(=O)c1ccc(-c2cc(O)c3ncccc3c2)cc1 . Its measured AUC of viability dose-response curve is 434

Consider COc1ccnc(C[S+]([O-])c2nc3cc(OC(F)F)ccc3[nH]2)c1OC (stereo not given) . Its measured AUC of viability dose-response curve is 464

Consider COC(=O)[C@@H](N)CCCNC(=N)N[N+](=O)[O-] . Its measured AUC of viability dose-response curve is 427

Consider O=C1NC(O)CCN1[C@@H]1O[C@H](CO)[C@@H](O)[C@H]1O (stereo not given in full) . Its measured AUC of viability dose-response curve is 459

Consider CNCC(O)C(O)C(O)C(O)CO.O=C(O)c1ccc(-c2cc3cccnc3c(-c3ccc4nonc4c3)n2)cc1 . Its measured AUC of viability dose-response curve is 464

Consider Cc1c(C(=O)Nc2cccc(C(F)(F)F)c2)cc(-c2ccccc2)n1CCCN1CCOCC1 . Its measured AUC of viability dose-response curve is 446
